Tested on: SF-268 CNS
experimental protocol: NCI tumour cell line growth inhibition, 48 h
assay readout: TGI

C=C1C[C@@H]2CC[C@@]34C[C@H]5O[C@H]6[C@@H](O3)[C@H]3O[C@H](CC[C@@H]3O[C@H]6[C@H]5O4)CC(=O)C[C@@H]3[C@@H](OC)[C@@H](C[C@H](O)CN)O[C@H]3C[C@H]3O[C@@H](CC[C@@H]1O2)C[C@@H](C)C3=C	> 1 µM
CCCCN1C(=O)CC2[C@@H]3CCc4cc(OC)ccc4C3CC[C@]2(C)C1=O (stereo not given in full)	> 10 µM
CCN(CCCCCCCCCCN1CC(=O)N(CCCCCCCCCCN(CC)Cc2ccccc2OC)CC1=O)Cc1ccccc1OC	2.96 µM
O=c1[nH]c(=O)n(C2CC(O)C(CO)O2)cc1OC/C=C/Cc1ccccc1 (stereo not given)	> 100 µM

Entry `NC(N)=NS(=O)(=O)c1ccc(NC(=O)c2cccc3c(NNc4ccc(S(N)(=O)=O)cc4)c4ccccc4nc23)cc1` — recorded TGI = > 100 µM
